Tested on: rhabdomyosarcoma (RD) cells
experimentalDetails: Assay for inhibition of cell proliferation (MTT), rhabdomyosarcoma cells
Type: cell-based, human
assaySetup: ratio of paclitaxel IC50 to compound IC50, RD cells
Grouping rule (RD Ratio (paclitaxel/compound)): L (below 0.3), M (0.3 to below 2), H (2 or more)

// below: answered compounds
compound: CC[C@H](C)Cn1c(-c2c(F)cc(OCCN(C)C)cc2F)c(Cl)nc(-n2cccn2)c1=O [Compound 483]
targetOfAssay: rhabdomyosarcoma (RD) cells
groupLabel: M
//
compound: CC[C@H](C)Cn1c(-c2c(F)cc(O)cc2F)c(Cl)nc(-n2cccn2)c1=O [Compound 503]
targetOfAssay: rhabdomyosarcoma (RD) cells
groupLabel: L
//
compound: O=c1c(-n2cccn2)nc(Cl)c(-c2c(F)cc(F)cc2F)n1-c1cccc(F)c1 [Compound 324]
targetOfAssay: rhabdomyosarcoma (RD) cells
groupLabel: M
//
compound: CNCCCOc1cc(F)c(-c2c(Cl)nc(-n3ccc(C)n3)c(=O)n2CC(C)C)c(F)c1 [Compound 496]
targetOfAssay: rhabdomyosarcoma (RD) cells
groupLabel: M

# bin lookup: classify CC(C)Cn1c(-c2ccc(F)cc2Cl)c(Cl)nc(-n2cccn2)c1=O [Compound 53] by its RD Ratio (paclitaxel/compound) L

Tag the class for CC[C@H](C)Cn1c(-c2c(F)cc(OCCCNC)cc2Cl)c(Cl)nc(-n2cccn2)c1=O [Compound 493] H

---

System: neuroblastoma (N1E115) cells
experimentalDetails: Assay for inhibition of cell proliferation (MTT), neuroblastoma cells
Format: cell-based, mouse
assaySetup: Mus musculus, N1E-115; neuroblastoma (N1E115) cells, MTT
assayEndpoint: pIC50
Numbers only, as −log10 of the molar value.

Solved entries:
molecule: CC[C@H](C)Cn1c(-c2c(F)cc(OCCCNC)cc2Cl)c(Cl)nc(-n2cccn2)c1=O
targetOfAssay: neuroblastoma (N1E115) cells
pIC50: 8.35
--
molecule: CC(C)Cn1c(-c2c(F)cccc2F)c(Cl)nc(-n2cccn2)c1=O
targetOfAssay: neuroblastoma (N1E115) cells
pIC50: 6.96
--
molecule: CCC(C)Cn1c(-c2c(F)cc(OCCN(C)C)cc2F)c(Cl)nc(-n2cccn2)c1=O (stereo not shown)
targetOfAssay: neuroblastoma (N1E115) cells
pIC50: 7.60

Could you now look at the following molecule, please?
// CC[C@H](C)Cn1c(-c2c(F)cc(F)cc2F)c(Cl)nc(-n2cccn2)c1=O : pIC50 value = 7.12

---

So I've got a bunch of compounds here, and I need their melting point values.

Observe how each entry below is paired with its result.
compound: CC(C)Cn1c(-c2ccc(F)cc2Cl)c(Cl)nc(-n2cccn2)c1=O
melting point: 137 to 139 °C
--
compound: CC(C)Cn1c(-c2c(F)cccc2F)c(Cl)nc(-c2cn(C)cn2)c1=O
melting point: 191 to 193 °C
--
compound: CC(C)Cn1c(-c2c(F)cccc2F)cnc(-n2cccn2)c1=O
melting point: 91 to 92 °C
--
compound: Cc1nc(-n2cccn2)c(=O)n(CC(C)C)c1-c1c(F)cccc1F
melting point: 105 to 106 °C
--
compound: CC(C)Cn1c(-c2c(F)cccc2F)c(Cl)nc(C#N)c1=O
melting point: 100 to 102 °C

Look up melting point for the entries below, preserving their order.
1. CCC(C)Cn1c(-c2ccc(F)cc2F)c(C)nc(C#N)c1=N (stereo not drawn)
2. COc1ccc(Cn2c(-c3c(F)cccc3F)c(Cl)nc(-n3cccn3)c2=O)cc1
3. CC[C@H](C)Cn1c(-c2c(F)cc(F)cc2F)c(Cl)nc(-n2cccn2)c1=O
4. O=c1c(-n2cccn2)nc(Cl)c(-c2c(F)cc(F)cc2F)n1CC(F)(F)C(F)(F)F

["73 to 77 °C", "235 to 236 °C", "112 to 113 °C", "147 to 149 °C"]

---

Tested on: rhabdomyosarcoma (RD) cells
experimentalDetails: Assay for inhibition of cell proliferation (MTT), rhabdomyosarcoma cells
Type: cell-based, human
assaySetup: Homo sapiens; rhabdomyosarcoma (RD) cells, MTT, 96 h incubation
Description: Human rabdomyosarcoma (RD) and mouse neuroblastoma (N1E115) cell lines were obtained from the American Type Culture Collection (ATCC, Rockville, Md.). […] The proliferation of rhabdomyosarcoma cells was determined using a cell proliferation assay kit based on the formation of insoluble formazan crystals from 3-(4,5-dimethylthiazol-2-yl)-2,5-diphenyltetrazolium bromide (MTT). […]
assayEndpoint: log10 of IC50 (log10 of the value in nM)
Hey, these are logged values: log10 of IC50, nM being the unit before logging.

Below, 5 compounds whose answers are already recorded.
compound: CC[C@H](C)Cn1c(-c2c(F)cc(OC)cc2F)c(Cl)nc(-n2cccn2)c1=O [Compound 457]
log10 of IC50: 0.04

compound: CC[C@H](C)Cn1c(-c2c(F)cc(OCCCN(C)C)cc2F)c(Cl)nc(-n2cccn2)c1=O [Compound 482]
log10 of IC50: 0.18

compound: CCC(C)Cn1c(-c2c(F)cc(OCCN(C)C)cc2F)c(Cl)nc(-n2cccn2)c1=O (stereo not drawn) [Compound 479]
log10 of IC50: 2.30

compound: CC(C)Cn1c(-c2ccc(F)cc2Cl)c(Cl)nc(-n2cccn2)c1=O [Compound 53]
log10 of IC50: 2.36

compound: CC(C)Cn1c(-c2c(F)cccc2F)c(Cl)nc(-n2cccn2)c1=O [Compound 1]
log10 of IC50: 2.70

# batch: return log10 of IC50 for each of the 4 compounds below
1. CC(Cn1c(-c2c(F)cc(OCCCN(C)C)cc2F)c(Cl)nc(-n2cccn2)c1=O)C(F)(F)F (stereo not drawn) [Compound 485]
2. CN(C)CCCOc1cc(F)c(-c2c(Cl)nc(-n3cccn3)c(=O)n2CC2CC2)c(F)c1 [Compound 481]
3. CC[C@H](C)Cn1c(-c2c(F)cc(OCCCNC)cc2F)c(Cl)nc(-n2ccc(C)n2)c1=O [Compound 494]
4. CC[C@H](C)Cn1c(-c2c(F)cc(OCCCN(C)C)cc2F)c(Cl)nc(-n2ccc(C)n2)c1=O [Compound 498]

1. 1.44
2. 0.51
3. -0.40
4. 0.58

---

Answer each item with its documented log10 of IC50.
Test system: neuroblastoma (N1E115) cells
experimentalDetails: Assay for inhibition of cell proliferation (MTT), neuroblastoma cells
Assay type: cell-based, mouse
assaySetup: Mus musculus, N1E-115; neuroblastoma (N1E115) cells, MTT
On a log10 scale: recorded IC50, unit nM.

Here is how some molecules turned out for log10 of IC50.
molecule: CC[C@H](C)Cn1c(-c2c(F)cc(OCCCNC)cc2F)c(Cl)nc(-n2ccc(C)n2)c1=O [Compound 494]
experimentalResult: 0.11
--
molecule: CC(Cn1c(-c2c(F)cc(OCCCN(C)C)cc2F)c(Cl)nc(-n2cccn2)c1=O)C(F)(F)F (centres unmarked) [Compound 485]
experimentalResult: 2.18
--
molecule: CC[C@H](C)Cn1c(-c2c(F)cc(OCCCN(C)C)cc2F)c(Cl)nc(-n2ccc(C)n2)c1=O [Compound 498]
experimentalResult: 1.15
--
molecule: CN(C)CCCOc1cc(F)c(-c2c(Cl)nc(-n3cccn3)c(=O)n2CC2CC2)c(F)c1 [Compound 481]
experimentalResult: 1.48

--- query ---
Kindly note the recorded log10 of IC50 for CC[C@H](C)Cn1c(-c2c(F)cc(OCCCN(C)C)cc2F)c(Cl)nc(-n2cccn2)c1=O [Compound 482] , which is 0.41

---

System: rhabdomyosarcoma (RD) cells
experimentalDetails: Assay for inhibition of cell proliferation (MTT), rhabdomyosarcoma cells
Format: cell-based, human
assaySetup: ratio of paclitaxel IC50 to compound IC50, RD cells
Provide the reported RD Ratio (paclitaxel/compound) of each item.
Numbers only.

// below: answered compounds
compound: CC[C@H](C)Cn1c(-c2c(F)cc(OCCCN(C)C)cc2F)c(Cl)nc(-n2ccc(C)n2)c1=O
targetOfAssay: rhabdomyosarcoma (RD) cells
RD Ratio (paclitaxel/compound): 4.47
--
compound: CC[C@H](C)Cn1c(-c2c(F)cc(OC)cc2F)c(Cl)nc(-n2ccc(C)n2)c1=O
targetOfAssay: rhabdomyosarcoma (RD) cells
RD Ratio (paclitaxel/compound): 1.04
--
compound: CC[C@H](C)Cn1c(-c2c(F)cc(OC)cc2F)c(Cl)nc(-n2cccn2)c1=O
targetOfAssay: rhabdomyosarcoma (RD) cells
RD Ratio (paclitaxel/compound): 15.45

Dear colleague, could you please provide RD Ratio (paclitaxel/compound) for the compounds listed below?
1. CCC(C)Cn1c(-c2c(F)cc(OCCN(C)C)cc2F)c(Cl)nc(-n2cccn2)c1=O (stereo not drawn)
2. CN(C)CCCOc1cc(F)c(-c2c(Cl)nc(-n3cccn3)c(=O)n2-c2cccc(F)c2)c(F)c1
3. CC[C@H](C)Cn1c(-c2c(F)cc(OCCCNC)cc2F)c(Cl)nc(-n2ccc(C)n2)c1=O
4. CC[C@H](C)Cn1c(-c2c(F)cc(OCCN(C)C)cc2F)c(Cl)nc(C(N)=O)c1=O

[0.09, 0.60, 42.50, 1.70]
